# TGT: T1, cynomolgus monkey KLK5 (cynomolgus monkey, UniProt Q9Y337 67-293 (human entry))
# T1 construct: also called cyno KLK5
# T1 chain: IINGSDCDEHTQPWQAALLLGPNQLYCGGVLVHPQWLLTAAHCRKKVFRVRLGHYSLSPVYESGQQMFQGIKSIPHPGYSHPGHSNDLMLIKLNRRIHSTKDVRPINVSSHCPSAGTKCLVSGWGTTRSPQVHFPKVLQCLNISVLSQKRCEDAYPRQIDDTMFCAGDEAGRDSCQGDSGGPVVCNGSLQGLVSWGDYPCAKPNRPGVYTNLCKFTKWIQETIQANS
# PROCEDURE_SUMMARY: SPR, one-armed monovalent antibody
REPORTED_PROPERTY: Kd (nM)

{"BINDER": "OA.hu.9H5.H14L4.G54A.H89V (antibody, V domains shown, One-armed (OA) monovalent anti-KLK5 antibody with a human IgG1 Fc, with Q38E/Q39K; constant regions and dummy Fc chain not specified) VH: EVQLVESGGGLIQPGGSLRLSCAASGFSLSSYGVSWVRKAPGKGLEYVGFIGSAGFAYYASWAKSRFTISRDNSKNTLYLQMNSLRAEDTAVYYCARDDVGGGKSLDIWGQGTLVTVSS VL: DIQMTQSPSSLSASVGDRVTITCQASQSISSYLSWYQEKPGKAPKLLIYSASTLASGVPSRFSGSGSGTDFTLTISSLQPEDFATYYCVQDYTSSNVDNTFGGGTKVEIK", "RECORDED_MEASUREMENT": 0.00893}
{"BINDER": "OA.hu.9H5.H14L4.G98Q.H89V.S95Y (antibody, V domains shown, One-armed (OA) monovalent anti-KLK5 antibody with a human IgG1 Fc, with Q38E/Q39K; constant regions and dummy Fc chain not specified) VH: EVQLVESGGGLIQPGGSLRLSCAASGFSLSSYGVSWVRKAPGKGLEYVGFIGSGGFAYYASWAKSRFTISRDNSKNTLYLQMNSLRAEDTAVYYCARDDVQGGKSLDIWGQGTLVTVSS VL: DIQMTQSPSSLSASVGDRVTITCQASQSISSYLSWYQEKPGKAPKLLIYSASTLASGVPSRFSGSGSGTDFTLTISSLQPEDFATYYCVQDYTSYNVDNTFGGGTKVEIK", "RECORDED_MEASUREMENT": 0.033}
{"BINDER": "OA.hu.9H5.H14L4.G54A.G98Q.H89V.S95Y (antibody, V domains shown, One-armed (OA) monovalent anti-KLK5 antibody with a human IgG1 Fc, with Q38E/Q39K; constant regions and dummy Fc chain not specified) VH: EVQLVESGGGLIQPGGSLRLSCAASGFSLSSYGVSWVRKAPGKGLEYVGFIGSAGFAYYASWAKSRFTISRDNSKNTLYLQMNSLRAEDTAVYYCARDDVQGGKSLDIWGQGTLVTVSS VL: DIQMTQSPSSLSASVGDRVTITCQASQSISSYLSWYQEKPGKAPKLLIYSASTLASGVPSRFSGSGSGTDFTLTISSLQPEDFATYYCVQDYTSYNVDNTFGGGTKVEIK", "RECORDED_MEASUREMENT": 0.0146}
{"BINDER": "OA.hu.9H5.H14L4.G98Q.S95Y (antibody, V domains shown, One-armed (OA) monovalent anti-KLK5 antibody with a human IgG1 Fc, with Q38E/Q39K; constant regions and dummy Fc chain not specified) VH: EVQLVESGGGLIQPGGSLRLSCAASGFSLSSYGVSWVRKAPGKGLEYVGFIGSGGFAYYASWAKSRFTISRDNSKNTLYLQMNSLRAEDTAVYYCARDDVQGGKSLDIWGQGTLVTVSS VL: DIQMTQSPSSLSASVGDRVTITCQASQSISSYLSWYQEKPGKAPKLLIYSASTLASGVPSRFSGSGSGTDFTLTISSLQPEDFATYYCHQDYTSYNVDNTFGGGTKVEIK", "RECORDED_MEASUREMENT": 0.0361}
{"BINDER": "OA.hu.9H5.H14L4.G54A.G98Q.S95Y (antibody, V domains shown, One-armed (OA) monovalent anti-KLK5 antibody with a human IgG1 Fc, with Q38E/Q39K; constant regions and dummy Fc chain not specified) VH: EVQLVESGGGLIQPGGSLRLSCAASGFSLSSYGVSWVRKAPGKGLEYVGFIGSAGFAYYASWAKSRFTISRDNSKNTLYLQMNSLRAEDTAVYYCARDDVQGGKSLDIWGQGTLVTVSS VL: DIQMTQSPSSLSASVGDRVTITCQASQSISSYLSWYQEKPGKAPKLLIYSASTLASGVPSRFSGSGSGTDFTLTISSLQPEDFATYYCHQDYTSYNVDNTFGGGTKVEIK", "RECORDED_MEASUREMENT": 0.0154}
